System: Saccharomyces cerevisiae BY4741 SeMeCo community
assay.method.text: z-score of subpopulation abundance vs DMSO median, subpopulation auxotrophic for M; higher = larger share of this subpopulation than in DMSO controls
measurement.parameters: 10 µM; 24 h; SM minimal medium; subpopulation (auxotrophy): M
Structures can show the parent of a compound that is named as a salt.
Label True when z-score of subpopulation abundance is at or above -0.4; otherwise label False.

{"columns": ["compound", "assigned.label"],
 "data": [
  ["CCN(CC)C(=O)C1(c2ccccc2)CC1CN (centres undefined) [Milnacipran HCl]", "False"],
  ["COc1ccnc(C[S+]([O-])c2nc3cc(-n4cccc4)ccc3[nH]2)c1C (centres undefined) [Ilaprazole sodium]", "True"],
  ["O=C(O)CCc1nc(-c2ccccc2)c(-c2ccccc2)o1 [Oxaprozin]", "False"],
  ["NCCNc1ccc(NCCN)c2c1C(=O)c1ccncc1C2=O [Pixantrone Maleate]", "False"],
  ["CCOc1ccc2nc3cc(N)ccc3c(N)c2c1 [Ethacridine lactate monohydrate]", "True"],
  ["CN1CCC(=C2c3ccccc3CCc3sccc32)CC1 [Pizotifen Malate]", "True"],
  ["CCN(CC)CCOC(=O)c1ccc(N)cc1 [Procaine HCl]", "False"],
  ["COc1ccccc1OCC(O)CN1CCN(CC(=O)Nc2c(C)cccc2C)CC1 (centres undefined) [Ranolazine 2HCl]", "True"],
  ["COCCCOc1ccnc(C[S+]([O-])c2nc3ccccc3[nH]2)c1C (centres undefined) [Rebeprazole sodium]", "True"],
  ["CCCc1nn(C)c2c(=O)[nH]c(-c3cc(S(=O)(=O)N4CCN(C)CC4)ccc3OCC)nc12 [Sildenafil Mesylate]", "False"],
  ["CC(C)n1c(/C=C/C(O)CC(O)CC(=O)O)c(-c2ccc(F)cc2)c2ccccc21 (centres undefined) [Fluvastatin Sodium]", "True"],
  ["N#C/C(=C1/SC[C@@H](c2ccc(Cl)cc2Cl)S1)n1ccnc1 [Luliconazole]", "False"],
  ["CC1(C)S[C@@H]2[C@H](NC(=O)Cc3ccccc3)C(=O)N2[C@H]1C(=O)O.CCN(CC)CCOC(=O)c1ccc(N)cc1 [Penicillin G Procaine]", "True"],
  ["Nc1ccc(S(=O)(=O)NC(=O)c2ccccc2)cc1 [Sulfabenzamide]", "True"],
  ["CO[C@@H]1[C@H](OC(=O)/C=C/C=C/C=C/C=C/C(=O)O)CC[C@]2(CO2)[C@H]1[C@@]1(C)O[C@@H]1CC=C(C)C [Fumagillin]", "True"],
  ["CCN1CCCC1CNC(=O)c1cc(S(N)(=O)=O)ccc1OC (centres undefined) [Sulpiride]", "True"],
  ["CO/N=C(\\C(=O)N[C@@H]1C(=O)N2C(C(=O)[O-])=C(C[N+]3(C)CCCC3)CS[C@H]12)c1csc(N)n1 [Cefepime Dihydrochloride Monohydrate]", "True"],
  ["CCCc1nc(C)c2c(=O)nc(-c3cc(S(=O)(=O)N4CCN(CC)CC4)ccc3OCC)[nH]n12 [Vardenafil HCl Trihydrate]", "True"],
  ["CCC(C)n1ncn(-c2ccc(N3CCN(c4ccc(OCC5COC(Cn6cncn6)(c6ccc(Cl)cc6Cl)O5)cc4)CC3)cc2)c1=O (centres undefined) [Itraconazole]", "True"],
  ["OCCN1CCN(CCCN2c3ccccc3Sc3ccc(Cl)cc32)CC1 [Perphenazine]", "False"],
  ["CNCc1cc(-c2ccccc2F)n(S(=O)(=O)c2cccnc2)c1 [Vonoprazan Fumarate (TAK-438)]", "True"],
  ["CCCN1C[C@H](C)[C@@H](O)[C@](C)(O)[C@@H](CC)OC(=O)[C@H](C)[C@@H](O[C@H]2C[C@@](C)(OC)[C@@H](O)[C@H](C)O2)[C@H](C)[C@@H](O[C@@H]2O[C@H](C)C[C@H](N(C)C)[C@H]2O)[C@](C)(O)C[C@H]1C [Gamithromycin]", "False"],
  ["N#Cc1ccc2[nH]cc(CCCCN3CCN(c4ccc5oc(C(N)=O)cc5c4)CC3)c2c1 [Vilazodone HCl]", "True"],
  ["N#CC(c1ccc(Cl)cc1)c1c(Cl)cc(-n2ncc(=O)[nH]c2=O)cc1Cl (centres undefined) [Diclazuril]", "True"],
  ["C[C@@H]1C/C=C/C=C/C=C/C=C/[C@H](O[C@@H]2O[C@H](C)[C@@H](O)[C@H](N)[C@@H]2O)C[C@@H]2O[C@](O)(C[C@@H](O)C[C@H]3O[C@@H]3/C=C/C(=O)O1)C[C@H](O)[C@H]2C(=O)O [Natamycin]", "False"],
  ["C#C[C@]1(O)CC[C@H]2[C@@H]3CCC4=CC(=O)CC[C@@H]4[C@H]3CC[C@@]21CC [Levonorgestrel]", "True"],
  ["O=C1CCc2ccc(OCCCCN3CCN(c4cccc(Cl)c4Cl)CC3)cc2N1 [Aripiprazole]", "True"],
  ["C=C1c2cccc(O)c2C(O)=C2C(=O)[C@]3(O)C(O)=C(C(N)=O)C(=O)[C@@H](N(C)C)[C@@H]3[C@@H](O)[C@H]12 [Methacycline HCl]", "True"],
  ["CCN(CC)CCOc1ccc2c(c1)C(=O)c1cc(OCCN(CC)CC)ccc1-2 [Tilorone dihydrochloride]", "False"]
]}

---

Test system: Saccharomyces cerevisiae BY4741 SeMeCo community
assay.method.text: z-score of subpopulation abundance vs DMSO median, subpopulation auxotrophic for L; higher = larger share of this subpopulation than in DMSO controls
measurement.parameters: 10 µM; 24 h; SM minimal medium; subpopulation (auxotrophy): L
Structures can show the parent of a compound that is named as a salt.
Label t when z-score of subpopulation abundance is at or above 0.5; otherwise label f.

{"columns": ["compound", "target.of.assay", "assigned.label"],
 "data": [
  ["CO[C@@]1(NC(=O)C(C(=O)O)c2ccc(O)cc2)C(=O)N2C(C(=O)O)=C(CSc3nnnn3C)CO[C@@H]21 (stereo partly specified) [Latamoxef sodium]", "Saccharomyces cerevisiae BY4741 SeMeCo community", "f"],
  ["C#C[C@]1(O)CC[C@H]2[C@@H]3CCc4cc(OC)ccc4[C@H]3CC[C@@]21C", "Saccharomyces cerevisiae BY4741 SeMeCo community", "f"],
  ["COC(=O)C1=C(C)NC(C)=C(C(=O)OC2CCCN(Cc3ccccc3)C2)C1c1cccc([N+](=O)[O-])c1 (stereo unspecified) [Benidipine HCl]", "Saccharomyces cerevisiae BY4741 SeMeCo community", "t"],
  ["Cc1ccc(O)c([C@H](CCN(C(C)C)C(C)C)c2ccccc2)c1 [Tolterodine tartrate]", "Saccharomyces cerevisiae BY4741 SeMeCo community", "f"],
  ["NCCNc1ccc(NCCN)c2c1C(=O)c1ccncc1C2=O [Pixantrone Maleate]", "Saccharomyces cerevisiae BY4741 SeMeCo community", "t"]
]}

---

Tested on: Saccharomyces cerevisiae BY4741 SeMeCo community
assay.method.text: mean cell size (pixel area) (pixels); higher = larger cells
measurement.parameters: 10 µM; 24 h; SM minimal medium
Where a name gives a salt, the structure may show the parent alone.
test.readout: mean cell size

{"columns": ["molecule", "target.of.assay", "value.observed"],
 "data": [
  ["CCc1c2c(nc3ccc(OC(=O)N4CCC(N5CCCCC5)CC4)cc13)-c1cc3c(c(=O)n1C2)COC(=O)[C@]3(O)CC [Irinotecan HCl Trihydrate]", "Saccharomyces cerevisiae BY4741 SeMeCo community", 12.5],
  ["CC[C@@]1(O)C(=O)OCc2c1cc1n(c2=O)Cc2cc3c(CN(C)C)c(O)ccc3nc2-1 [Topotecan HCl]", "Saccharomyces cerevisiae BY4741 SeMeCo community", 12.5],
  ["C#CCN[C@@H]1CCc2ccccc21 [Rasagiline]", "Saccharomyces cerevisiae BY4741 SeMeCo community", 12.3],
  ["CC1(C)S[C@@H]2[C@H](NC(=O)[C@H](N)c3ccc(O)cc3)C(=O)N2[C@H]1C(=O)O [Amoxicillin]", "Saccharomyces cerevisiae BY4741 SeMeCo community", 12.6]
]}

---

Tested on: Saccharomyces cerevisiae BY4741 SeMeCo community
assay.method.text: z-score of subpopulation abundance vs DMSO median, subpopulation auxotrophic for H; higher = larger share of this subpopulation than in DMSO controls
measurement.parameters: 10 µM; 24 h; SM minimal medium; subpopulation (auxotrophy): H

{"columns": ["compound", "target.of.assay", "z-score of subpopulation abundance"],
 "data": [
  ["CC1(C)S[C@@H]2[C@H](NC(=O)[C@H](C(=O)O)c3ccsc3)C(=O)N2[C@H]1C(=O)O [Ticarcillin sodium]", "Saccharomyces cerevisiae BY4741 SeMeCo community", 0.6],
  ["CN1CCN(C2=Nc3ccccc3Oc3ccc(Cl)cc32)CC1 [Loxapine Succinate]", "Saccharomyces cerevisiae BY4741 SeMeCo community", 0.08],
  ["NC(=O)[C@@H]1CC[C@@H]2CN1C(=O)N2OS(=O)(=O)O [Avibactam sodium]", "Saccharomyces cerevisiae BY4741 SeMeCo community", -0.62],
  ["O=c1ccc2ccc(OCCCCN3CCN(c4cccc5sccc45)CC3)cc2[nH]1", "Saccharomyces cerevisiae BY4741 SeMeCo community", 0.96]
]}
